// values below are reported MIC
Tested on: Pseudomonas aerugenosa
protocol-description: MIC, broth two-fold serial dilution test, Pseudomonas aerugenosa (Psae)
Type: cell-based
condition-notes: TSB

{"compound": "C#CCN1C(=O)NC(C)(C)C1=O [Compound 12, 3-(2-propynyl)-5,5-dimethylhydantoin, reference compound]", "MIC": "> 500 µg/mL"}
{"compound": "CCCCN1C(=O)N(CC#CI)C(C)(C)C1=O", "MIC": "500 µg/mL"}
{"compound": "CCCCCCCCN1C(=O)N(CC#CI)C(C)(C)C1=O", "MIC": "> 500 µg/mL"}
{"compound": "CC(C)(C#CI)N1CC(=O)N(c2cc(Cl)cc(Cl)c2)C1=O", "MIC": "> 500 µg/mL"}
{"compound": "C#CCN1C(=O)N(c2cc(Cl)cc(Cl)c2)C(=O)C1C (stereo not shown) [Compound 1', reference compound]", "MIC": "> 500 µg/mL"}
{"compound": "CC1(C)C(=O)N(CC#CI)C(=O)N1Cc1ccccc1", "MIC": "> 500 µg/mL"}
{"compound": "O=C1N(c2cc(Cl)cc(Cl)c2)C(=O)C2(CCCC2)N1CC#CI", "MIC": "> 500 µg/mL"}
{"compound": "C#CCN1C(=O)N(Cc2ccccc2)C(=O)C1(C)C [Compound 8, reference compound]", "MIC": "> 500 µg/mL"}
{"compound": "O=C1CNC(=O)N1CC#CI", "MIC": "500 µg/mL"}
{"compound": "CC1(C)C(=O)N(Cc2ccccc2)C(=O)N1CC#CI", "MIC": "125 µg/mL"}
{"compound": "O=C1CN(CC#CI)C(=O)N1c1cc(Cl)cc(Cl)c1", "MIC": "> 500 µg/mL"}
{"compound": "O=C1N(c2cc(Cl)cc(Cl)c2)C(=O)C2(CCCCC2)N1CC#CI", "MIC": "> 500 µg/mL"}
{"compound": "C#CCN1C(=O)N(Cc2ccccc2)C(C)(C)C1=O [Compound 14, reference compound]", "MIC": "> 500 µg/mL"}
{"compound": "C#CCN1C(=O)N(CC#C)C(C)(C)C1=O [Compound 11, reference compound]", "MIC": "> 500 µg/mL"}
{"compound": "CC1(C)NC(=O)N(CC#CI)C1=O", "MIC": "> 500 µg/mL"}
{"compound": "CC1C(=O)N(c2ccc(F)cc2)C(=O)N1CC#CI (stereo not shown)", "MIC": "> 500 µg/mL"}
{"compound": "CC1(C)C(=O)N(c2cc(Cl)cc(Cl)c2)C(=O)N1CC#CI", "MIC": "> 500 µg/mL"}
{"compound": "CC1C(=O)N(c2cc(Cl)cc(Cl)c2)C(=O)N1CC#CI (stereo not shown)", "MIC": "> 500 µg/mL"}
{"compound": "CC1C(=O)N(c2ccc(Cl)cc2)C(=O)N1CC#CI (stereo not shown)", "MIC": "> 500 µg/mL"}

---

System: Pseudomonas aerugenosa
protocol-description: MIC, broth two-fold serial dilution test, Pseudomonas aerugenosa (Psae)
Type: cell-based
condition-notes: M9G

{"compound": "C#CCN1C(=O)N(Cc2ccccc2)C(=O)C1(C)C [Compound 8, reference compound]", "system": "Pseudomonas aerugenosa", "MIC": "> 500 µg/mL"}
{"compound": "O=C1N(c2cc(Cl)cc(Cl)c2)C(=O)C2(CCCCC2)N1CC#CI", "system": "Pseudomonas aerugenosa", "MIC": "> 500 µg/mL"}
{"compound": "CC(C)(C#CI)N1CC(=O)N(c2cc(Cl)cc(Cl)c2)C1=O", "system": "Pseudomonas aerugenosa", "MIC": "> 500 µg/mL"}
{"compound": "C#CCN1C(=O)N(CC#C)C(C)(C)C1=O [Compound 11, reference compound]", "system": "Pseudomonas aerugenosa", "MIC": "> 500 µg/mL"}
{"compound": "CC1(C)C(=O)N(CC#CI)C(=O)N1CC#CI", "system": "Pseudomonas aerugenosa", "MIC": "125 µg/mL"}
{"compound": "CC1C(=O)N(c2cc(Cl)cc(Cl)c2)C(=O)N1CC#CI (centres unmarked)", "system": "Pseudomonas aerugenosa", "MIC": "> 500 µg/mL"}
{"compound": "CCCCN1C(=O)N(CC#CI)C(C)(C)C1=O", "system": "Pseudomonas aerugenosa", "MIC": "64 µg/mL"}
{"compound": "CC1(C)C(=O)N(CC#CI)C(=O)N1Cc1ccccc1", "system": "Pseudomonas aerugenosa", "MIC": "> 500 µg/mL"}
{"compound": "CC1(C)NC(=O)N(CC#CI)C1=O", "system": "Pseudomonas aerugenosa", "MIC": "250 µg/mL"}
{"compound": "CC1C(=O)N(c2ccc(Cl)cc2)C(=O)N1CC#CI (centres unmarked)", "system": "Pseudomonas aerugenosa", "MIC": "> 500 µg/mL"}
{"compound": "CCCCCCCCN1C(=O)N(CC#CI)C(C)(C)C1=O", "system": "Pseudomonas aerugenosa", "MIC": "125 µg/mL"}
{"compound": "CC1C(=O)N(c2ccc(F)cc2)C(=O)N1CC#CI (centres unmarked)", "system": "Pseudomonas aerugenosa", "MIC": "> 500 µg/mL"}
{"compound": "CC1(C)C(=O)N(Cc2ccccc2)C(=O)N1CC#CI", "system": "Pseudomonas aerugenosa", "MIC": "32 µg/mL"}
{"compound": "O=C1CNC(=O)N1CC#CI", "system": "Pseudomonas aerugenosa", "MIC": "250 µg/mL"}
{"compound": "CC1(C)C(=O)N(c2cc(Cl)cc(Cl)c2)C(=O)N1CC#CI", "system": "Pseudomonas aerugenosa", "MIC": "> 500 µg/mL"}
{"compound": "C#CCN1C(=O)N(Cc2ccccc2)C(C)(C)C1=O [Compound 14, reference compound]", "system": "Pseudomonas aerugenosa", "MIC": "> 500 µg/mL"}
{"compound": "C#CCN1C(=O)NC(C)(C)C1=O [Compound 12, 3-(2-propynyl)-5,5-dimethylhydantoin, reference compound]", "system": "Pseudomonas aerugenosa", "MIC": "> 500 µg/mL"}
{"compound": "C#CCN1C(=O)N(c2cc(Cl)cc(Cl)c2)C(=O)C1C (centres unmarked) [Compound 1', reference compound]", "system": "Pseudomonas aerugenosa", "MIC": "> 500 µg/mL"}
{"compound": "O=C1CN(CC#CI)C(=O)N1c1cc(Cl)cc(Cl)c1", "system": "Pseudomonas aerugenosa", "MIC": "> 500 µg/mL"}
{"compound": "O=C1N(c2cc(Cl)cc(Cl)c2)C(=O)C2(CCCC2)N1CC#CI", "system": "Pseudomonas aerugenosa", "MIC": "> 500 µg/mL"}
